# Species on record: Sus scrofa
# Experiment Summary: Inhibition of porcine kidney Na+/K+ ATPase at 50 uM assessed as enzyme residual activity using ATP as substrate incubated for 2 mins followed by substrate addition and measured after 6 mins (reference value: 100 +/-3.16%)
# Assay type: tissue-based
# Measurement Conditions: time 8.0 min
Assay Readout: Activity (%)
Numbers only; they are read as %.

Before answering, review these 2 worked examples.
Smiles Input: CC(=O)O[C@H]1C[C@]2(O)[C@@H]3CC[C@@H]4C[C@@H](O[Si](C)(C)C(C)(C)C)CC[C@]4(C)[C@H]3CC[C@]2(C)[C@H]1C1=CC(=O)OC1
Activity / %: 79.3

Smiles Input: CO[C@H]1C[C@H](O[C@H]2CC[C@@]3(C)[C@H](CC[C@@H]4[C@@H]3CC[C@]3(C)[C@@H](C5=CC(=O)OC5)[C@@H](OC(C)=O)C[C@]43O)C2)O[C@@H](C)[C@@H]1O
Activity / %: 59.2

Next item in the queue.
Query: For the compound shown here, "CC(=O)O[C@H]1CC[C@@]2(C)[C@H](CC[C@@H]3[C@@H]2CC[C@]2(C)[C@@H](c4ccoc4)[C@@H](OC(C)=O)C[C@]32O)C1" , give the reported Activity.
Result: 79.9

====

List of pIC50 values.
# Tested on: MCF7
# Experiment Summary: Cytotoxicity against human MCF7 cells assessed as reduction in cell viability incubated for 72 hrs by resazurin assay
# Assay type: functional, cell-based
# Measurement Conditions: MCF7, 72 h
pIC50: −log10 of the molar value.

Some entries whose results are on file:
Smiles Input: CC(=O)O[C@H]1C[C@]2(O)[C@@H]3CC[C@@H]4C[C@@H](O[Si](C)(C)C(C)(C)C)CC[C@]4(C)[C@H]3CC[C@]2(C)[C@H]1c1ccoc1
Measured Target: MCF7
Result: < 4.30

Smiles Input: C[C@]12CC[C@H](O)C[C@H]1CC[C@@H]1[C@@H]2CC[C@]2(C)[C@@H](c3ccoc3)[C@@H](O)[C@H]3O[C@]132
Measured Target: MCF7
Result: < 4.30

Now take the following compound into account.
Query: GET /values?readout=pIC50&item= "CC(=O)O[C@H]1C[C@@]23O[C@@H]4OC(=O)C=C4[C@@H]1[C@@]2(C)CC[C@H]1[C@H]3CC[C@@H]2C[C@@H](O)CC[C@@]21C"
Result: < 4.30
